- measured.on: FAK (Homo sapiens, UniProt Q05397)
- Sequence (Q05397 whole entry): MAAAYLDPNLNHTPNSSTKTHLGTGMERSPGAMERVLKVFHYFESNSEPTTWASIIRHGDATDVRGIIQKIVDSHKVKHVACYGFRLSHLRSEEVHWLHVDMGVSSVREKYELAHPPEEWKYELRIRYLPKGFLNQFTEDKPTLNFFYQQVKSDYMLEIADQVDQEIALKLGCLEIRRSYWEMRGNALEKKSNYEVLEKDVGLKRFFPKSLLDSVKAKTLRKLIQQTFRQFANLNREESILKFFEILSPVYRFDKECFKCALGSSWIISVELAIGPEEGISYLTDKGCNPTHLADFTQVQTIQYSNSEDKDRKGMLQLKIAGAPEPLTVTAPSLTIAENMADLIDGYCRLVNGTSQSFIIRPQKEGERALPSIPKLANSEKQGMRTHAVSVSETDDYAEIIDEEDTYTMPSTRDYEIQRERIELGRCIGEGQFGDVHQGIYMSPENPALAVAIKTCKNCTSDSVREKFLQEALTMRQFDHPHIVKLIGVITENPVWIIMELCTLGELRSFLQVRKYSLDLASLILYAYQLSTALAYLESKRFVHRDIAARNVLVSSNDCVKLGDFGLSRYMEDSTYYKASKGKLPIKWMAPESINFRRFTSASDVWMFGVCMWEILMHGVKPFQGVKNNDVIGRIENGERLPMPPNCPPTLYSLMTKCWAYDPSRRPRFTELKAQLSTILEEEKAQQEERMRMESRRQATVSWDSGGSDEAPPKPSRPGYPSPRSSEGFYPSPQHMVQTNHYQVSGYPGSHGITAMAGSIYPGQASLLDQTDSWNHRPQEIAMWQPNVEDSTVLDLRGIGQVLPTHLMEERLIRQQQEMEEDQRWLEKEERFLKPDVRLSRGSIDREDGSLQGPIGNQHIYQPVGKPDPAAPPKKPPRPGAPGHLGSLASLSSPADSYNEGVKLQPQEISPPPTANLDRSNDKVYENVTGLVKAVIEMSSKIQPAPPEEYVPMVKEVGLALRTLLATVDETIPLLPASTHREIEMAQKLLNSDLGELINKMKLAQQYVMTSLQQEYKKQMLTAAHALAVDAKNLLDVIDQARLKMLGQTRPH
measure: IC50 (nM)
Numbers only, in nM.

compound | IC50, nM
COc1cc2nccc(Oc3ccc(NC(=O)Nc4cc(C)on4)c(Cl)c3)c2cc1OC | 3100

Parameters: items (list). Returns: IC50 for each item.
1. NC(=O)Nc1cc(-c2cccc(F)c2)sc1C(=O)N[C@H]1CCCNC1
2. COc1cc2nccc(Oc3ccc(NC(=O)C4(C(=O)Nc5ccc(F)cc5)CC4)cc3)c2cc1OC [Cabozantinib]

-- reply
100
2800

###

- measured.on: RPS6KB1 (Homo sapiens, UniProt P23443)
- Sequence (P23443 whole entry): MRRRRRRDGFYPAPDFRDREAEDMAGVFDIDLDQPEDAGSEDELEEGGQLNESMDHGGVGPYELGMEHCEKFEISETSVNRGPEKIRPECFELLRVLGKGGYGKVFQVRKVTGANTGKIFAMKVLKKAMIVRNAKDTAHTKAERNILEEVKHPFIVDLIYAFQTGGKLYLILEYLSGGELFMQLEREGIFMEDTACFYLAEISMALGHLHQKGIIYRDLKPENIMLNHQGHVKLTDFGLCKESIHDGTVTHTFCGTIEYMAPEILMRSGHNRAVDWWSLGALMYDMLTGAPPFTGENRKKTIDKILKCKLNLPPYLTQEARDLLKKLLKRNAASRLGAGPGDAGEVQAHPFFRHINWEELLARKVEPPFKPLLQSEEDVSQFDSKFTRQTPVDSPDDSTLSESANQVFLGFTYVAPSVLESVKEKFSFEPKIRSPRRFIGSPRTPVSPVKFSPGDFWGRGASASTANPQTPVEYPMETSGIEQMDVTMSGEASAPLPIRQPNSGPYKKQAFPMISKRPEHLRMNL
measure: IC50

Example entries and their recorded answers appear below.
compound | IC50
NC(=O)Nc1cc(-c2cccc(F)c2)sc1C(=O)N[C@H]1CCCNC1 | 3 µM
COc1cc2nccc(Oc3ccc(NC(=O)Nc4cc(C)on4)c(Cl)c3)c2cc1OC | > 3.2 µM
CNC(=O)c1cc(COc2nnc(Nc3ccc(Cl)cc3)c3ccoc23)ccn1 | > 32 µM

-- ask Note IC50 for the compound shown: COc1cc2nccc(Oc3ccc(NC(=O)C4(C(=O)Nc5ccc(F)cc5)CC4)cc3)c2cc1OC [Cabozantinib]
-- reply 13.2 µM

Each recorded value in this set is attributed to paper PMC5837613.
